assay: Half life in cynomolgus monkey at 0.5, iv; format: ADME, organism-based, Macaca fascicularis; conditions: in vivo
Measurement Name: half-life (h)
Numbers only; they are read as h.

Ask: For the molecule shown here, C[C@](O)(c1ccc(C(=O)N(C2CC2)[C@H]2CC[C@H](c3cccnc3)CC2)cc1)C(F)(F)F , give the reported half-life.
Reply: 11.2

###

experiment: Volume of distribution at steady state in rat at 0.17 mg/kg, iv; format: ADME, organism-based; design: dose 0.17 mg/kg, route intravenous; conditions: in vivo, read-out: Vdss
Recorded Vd by entry
Answer with a number only, understood to be in L/kg.

Ask: // Vd lookup, key: C[C@](O)(c1ccc(C(=O)N(C2CC2)[C@H]2CC[C@H](c3ccc(C#N)cc3)CC2)cc1)C(F)(F)F
Reply: 2.5

Ask: Requested field: Vd. Item: C[C@](O)(c1ccc(C(=O)N(C2CC2)[C@H]2CC[C@H](CCC#N)CC2)cc1)C(F)(F)F
Reply: 0.91
